Where a name gives a salt, the structure may show the parent alone.
What follows is a collection of pIC50 values obtained with human clotting factor VIIa (Homo sapiens).
Sequence (P08709 213-466 limits assumed): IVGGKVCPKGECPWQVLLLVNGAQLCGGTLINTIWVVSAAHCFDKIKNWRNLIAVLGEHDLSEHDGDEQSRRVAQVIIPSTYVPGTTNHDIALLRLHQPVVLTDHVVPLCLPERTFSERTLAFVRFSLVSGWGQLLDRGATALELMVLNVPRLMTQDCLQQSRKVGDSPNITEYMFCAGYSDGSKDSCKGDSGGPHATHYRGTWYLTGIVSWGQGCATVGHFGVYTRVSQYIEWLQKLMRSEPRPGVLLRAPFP
Sequence (P08709 61-212 limits assumed): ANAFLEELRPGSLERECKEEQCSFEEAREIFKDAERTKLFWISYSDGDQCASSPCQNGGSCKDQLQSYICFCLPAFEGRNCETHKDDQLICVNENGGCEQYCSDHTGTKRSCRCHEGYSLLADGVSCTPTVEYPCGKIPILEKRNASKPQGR
Sequence (P13726 33-295 partner): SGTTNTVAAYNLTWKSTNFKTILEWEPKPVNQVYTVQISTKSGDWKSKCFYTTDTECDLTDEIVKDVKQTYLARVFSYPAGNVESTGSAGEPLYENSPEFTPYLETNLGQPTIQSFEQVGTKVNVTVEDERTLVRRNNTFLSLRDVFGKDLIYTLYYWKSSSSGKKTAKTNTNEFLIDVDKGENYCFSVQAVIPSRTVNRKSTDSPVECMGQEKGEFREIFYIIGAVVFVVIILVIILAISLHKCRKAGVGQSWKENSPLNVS
Conceptually, pIC50 converts a concentration in mol/L into minus its log10.

INSERT INTO measurements (compound, experimental_endpoint, number) VALUES
  ('COc1cc(F)c(C(Nc2ccc3c(c2)CNC3=N)c2nn(-c3n[nH]cc3C(=O)O)c(=O)[nH]2)cc1OC (stereo not drawn)', 'pIC50', 6.68),
  ('CCc1cc(OCCN(C)C)c(F)c(C(Nc2ccc3c(c2)CNC3=N)c2nn(-c3ncccn3)c(=O)[nH]2)c1 (stereo not drawn) [Example 3, Bistrifluoroacetate]', 'pIC50', 7.60),
  ('COc1cc(F)c(C(Nc2ccc3c(c2)CNC3=N)c2nn(-c3ccccc3C(=O)O)c(=O)[nH]2)cc1OC (stereo not drawn) [Example 13, Trifluoroacetate]', 'pIC50', 8.40);

[in] // lookup pIC50 for CCc1cc(OCCO)c(F)c(C(Nc2ccc3c(c2)CNC3=N)c2nn(-c3ncccc3N)c(=O)[nH]2)c1 (single isomer, unassigned) [Example 16, Acetate]
[out] 8.52

[in] Input COc1cc(C(Nc2ccc3c(c2)CNC3=N)c2nn(-c3ccsc3C(=O)O)c(=O)[nH]2)cc2c1OCOC2 (single isomer, unassigned)
[out] 8.52

[in] Input COc1cc(C(Nc2ccc3c(c2)CNC3=N)c2nn(-c3ncccc3N)c(=O)[nH]2)cc2c1OCOC2 (single isomer, unassigned) [Example 2, acetate]
[out] 7.89
